assay-system: SpCas9 (Streptococcus pyogenes serotype M1, UniProt Q99ZW2)
Sequence (Q99ZW2 whole entry): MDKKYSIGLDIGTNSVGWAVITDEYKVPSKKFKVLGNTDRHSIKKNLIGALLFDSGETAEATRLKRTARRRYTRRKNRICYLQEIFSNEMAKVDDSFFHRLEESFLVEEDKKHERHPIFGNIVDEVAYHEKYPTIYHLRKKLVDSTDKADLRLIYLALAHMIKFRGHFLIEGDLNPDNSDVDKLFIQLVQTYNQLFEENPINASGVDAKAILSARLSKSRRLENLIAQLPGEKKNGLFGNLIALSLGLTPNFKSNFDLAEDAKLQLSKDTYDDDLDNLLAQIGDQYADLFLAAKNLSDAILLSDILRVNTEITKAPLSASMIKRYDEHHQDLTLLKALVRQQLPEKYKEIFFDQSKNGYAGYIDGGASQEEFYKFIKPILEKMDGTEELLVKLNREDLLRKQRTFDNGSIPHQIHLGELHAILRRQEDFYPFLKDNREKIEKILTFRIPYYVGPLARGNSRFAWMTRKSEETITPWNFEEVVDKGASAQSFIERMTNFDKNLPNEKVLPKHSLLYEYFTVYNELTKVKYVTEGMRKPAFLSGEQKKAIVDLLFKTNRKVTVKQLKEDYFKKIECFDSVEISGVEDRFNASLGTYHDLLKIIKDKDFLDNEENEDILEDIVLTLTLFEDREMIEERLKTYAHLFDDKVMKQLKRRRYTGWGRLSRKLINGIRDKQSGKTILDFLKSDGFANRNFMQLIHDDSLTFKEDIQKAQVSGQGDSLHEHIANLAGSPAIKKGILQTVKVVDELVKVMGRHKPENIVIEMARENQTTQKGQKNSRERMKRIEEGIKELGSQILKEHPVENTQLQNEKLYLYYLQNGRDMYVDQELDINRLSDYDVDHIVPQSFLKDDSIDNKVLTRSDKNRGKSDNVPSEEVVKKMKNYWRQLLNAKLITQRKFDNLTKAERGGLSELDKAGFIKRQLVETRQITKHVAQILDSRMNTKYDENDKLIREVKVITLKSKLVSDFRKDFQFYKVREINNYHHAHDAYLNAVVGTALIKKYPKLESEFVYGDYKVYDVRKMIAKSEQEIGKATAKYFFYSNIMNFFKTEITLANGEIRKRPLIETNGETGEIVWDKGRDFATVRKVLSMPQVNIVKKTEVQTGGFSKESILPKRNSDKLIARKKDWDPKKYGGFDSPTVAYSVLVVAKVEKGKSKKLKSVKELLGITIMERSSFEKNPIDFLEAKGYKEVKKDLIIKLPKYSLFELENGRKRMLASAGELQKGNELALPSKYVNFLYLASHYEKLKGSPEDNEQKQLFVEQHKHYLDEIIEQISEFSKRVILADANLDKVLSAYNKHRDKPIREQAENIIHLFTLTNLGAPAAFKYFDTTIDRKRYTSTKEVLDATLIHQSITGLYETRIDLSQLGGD
assay-comment: Strand displacement assay (SDA) / cumulative activity assay (CAA), SpCas9 primary screen
Type: biochemical
experimental-setup: Primary Screen (150 min)
Decide using avg z score primary alone. Strictly below 6: Y. Equal to or above 6: N.

These recorded examples may help you get a feel for the data.
Query: Given Cn1cccc1/C=C\C(=O)O , is recorded avg z score primary strictly lower than 6?
Result: Y

Query: Given C=Cc1ccc(CSC2=NS(=O)(=O)c3ccccc3N2)cc1 , is recorded avg z score primary strictly lower than 6?
Result: Y

Query: Given NC1=C(c2nc3ccccc3s2)C(=O)CN1N=Cc1ccc(-c2ccc(S(=O)(=O)Nc3ncccn3)cc2)o1 , is recorded avg z score primary strictly lower than 6?
Result: N

Now consider the entry below.
Query: Given COc1ccc(-c2cc3c(C)nc(N)nc3n(C3CCC(OCCO)CC3)c2=O)cn1 (centres unmarked) , is recorded avg z score primary strictly lower than 6?
Result: N
